Below is a list of entries, each paired with its recorded normalized growth value.
assay: chemical genetic growth profiling, strain panel (AID 1159580);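 further: tested at 20 µM; growth read once vehicle control cultures reached saturation at 30 °C; 1 = growth at the plate median or of vehicle wells; lower values mean less growth of the strain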; settings: S. cerevisiae deletion strains, growth OD, locus YHR013C, strain ard1, active compounds read low
Hit rate of the full screen: of about 5,500 compounds, about 2,000 (36%) were called active. Roughly 18% stayed inconclusive and do not appear here. The list shows a part of the results.

[
  {
    "compound": "CC(=O)Oc1ccccc1C(=O)Oc1ccccc1C(=O)O",
    "normalized growth": 1.01
  },
  {
    "compound": "C[C@@H]1CCC2[C@](C)(CO)[C@@H](O)CC[C@]2(C)[C@@]12CC[C@@](CO)(CCO)O2 (some centres not stated)",
    "normalized growth": 0.959
  },
  {
    "compound": "CC1(C)Oc2ccc3ccc(=O)oc3c2CC1O (configuration not stated)",
    "normalized growth": 0.943
  },
  {
    "compound": "O=C(Oc1ccccc1C(=O)O)c1ccccc1O",
    "normalized growth": 0.963
  },
  {
    "compound": "COc1ccc(-c2cc(=O)c3c(O)c(OC)c(O[C@H]4O[C@H](CO[C@@H]5O[C@@H](C)[C@H](O)[C@@H](O)[C@H]5O)[C@@H](O)[C@H](O)[C@H]4O)cc3o2)cc1",
    "normalized growth": 1
  },
  {
    "compound": "O=C(CCCN1CCN(c2ccccn2)CC1)c1ccc(F)cc1",
    "normalized growth": 0.746
  },
  {
    "compound": "O=C(/C=C(\\O)c1ccccc1)c1ccccc1O",
    "normalized growth": 0.865
  },
  {
    "compound": "O=C(Oc1cccc2cccnc12)c1ccccc1",
    "normalized growth": 0.623
  },
  {
    "compound": "Nc1ccc(S(=O)(=O)Nc2ncccn2)cc1",
    "normalized growth": 0.984
  },
  {
    "compound": "COc1c(O)cc2c(c1O)[C@H]1O[C@H](CO)[C@@H](O)[C@H](O)[C@@H]1OC2=O",
    "normalized growth": 1.02
  },
  {
    "compound": "COc1ccc(-c2cc(=O)c3c(O)c(OC)c(OC)c(OC)c3o2)cc1OC",
    "normalized growth": 1.01
  },
  {
    "compound": "CC(=O)O[C@@H]1c2c(ccc3ccc(=O)oc23)OC(C)(C)[C@@H]1OC(=O)CC(C)C",
    "normalized growth": 1.01
  },
  {
    "compound": "CC12CCC(=O)C=C1CCc1ccccc12 (configuration not stated)",
    "normalized growth": 0.941
  },
  {
    "compound": "CC1=CC(=O)C(C(C)C)=CC1=O",
    "normalized growth": 0.995
  },
  {
    "compound": "COc1ccc(-c2cc(=O)c3c(O)cc(O)cc3o2)cc1",
    "normalized growth": 1.06
  },
  {
    "compound": "O=C1CC2(CCCC2)CC(=O)N1CCCCN1CCN(c2ncccn2)CC1",
    "normalized growth": 0.929
  },
  {
    "compound": "COC1=CC(=O)C=C(OC)C1=O",
    "normalized growth": 1.04
  },
  {
    "compound": "CC1(C)S[C@@H]2[C@H](NC(=O)[C@@H](N)c3ccc(O)cc3)C(=O)N2[C@H]1C(=O)O",
    "normalized growth": 1.03
  },
  {
    "compound": "CC1(C)[C@@H]2CC[C@@]1(C)C(=O)C2",
    "normalized growth": 0.991
  },
  {
    "compound": "CC1(C)C(O)CC(=O)C2(C)C1CC(O)C1(C)C2CCC2(C)C(c3ccoc3)OC(=O)C3OC321 (configuration not stated)",
    "normalized growth": 0.996
  },
  {
    "compound": "O=c1c(-c2ccc(O)cc2)coc2c(C3O[C@H](CO)[C@@H](O)[C@H](O)[C@H]3O)c(O)ccc12 (some centres not stated)",
    "normalized growth": 0.921
  },
  {
    "compound": "Cc1ncc(CO)c(CO)c1O",
    "normalized growth": 1.03
  }
]

The origin of these recorded values is PubChem BioAssay AID1159580.
